Listed next: entries and their corresponding switch fluorescence ratio.
System: ATP;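 further: ATP exposure 15 min at 22 °C before imaging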
protocol-notes: switch fluorescence ratio, 500 uM ATP over buffer (Cy3 cluster intensity, sum of 5 cycles each) (fold (ratio)); higher = stronger signal-on switching upon ATP binding; sequences stand for … in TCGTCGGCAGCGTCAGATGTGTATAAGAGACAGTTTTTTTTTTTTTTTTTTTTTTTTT…TC
condition-parameters: aptamer strand: ATP DNA aptamer (quencher-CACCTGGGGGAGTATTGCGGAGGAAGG + anchor), 100 nM annealed; ATP concentration: 500 uM
property-measured: switch fluorescence ratio

# chain-sequence, number
data = [
    ("GAGGTTGCTG", 0.987),
    ("GCGCATGGTA", 1.02),
    ("TCTAAGTAAC", 1),
    ("ATGGGGGGAT", 1.23),
    ("ATCAGGGTAT", 1.07),
    ("GAGATATATG", 0.983),
    ("TTTAAGGCGG", 0.989),
    ("GTGTTAGGTT", 1.01),
    ("TGCTCAATGA", 0.974),
    ("GGGTGGTAGG", 1),
    ("GCCTCTATTT", 0.968),
    ("CGGGGCGTCA", 0.978),
    ("CGGTTTTTTG", 0.964),
    ("GGTATATTAA", 1.02),
    ("GCAGGTAGGG", 0.998),
    ("TGTTGTCTTG", 0.986),
    ("TTGGATTATG", 1.01),
    ("AGCGACTGTA", 1.15),
    ("GGGCGTTTCA", 1.02),
    ("CATGTTAGGG", 1.01),
    ("AGGGGAGGAT", 1.1),
    ("ATTCAGAGTG", 0.965),
    ("ATATTAAAGT", 1.04),
    ("GTGATTGGCT", 0.978),
    ("TGCTTTAGGG", 0.965),
    ("CATGGAGAGG", 1.02),
    ("ATATGGTGTA", 0.959),
    ("TACTAACCAT", 1.12),
    ("TTTAAGAAGT", 1),
    ("GGTTTAGATA", 0.987),
    ("ATGCGGTAGA", 1.02),
    ("ATGTCCGGTT", 1),
    ("ACTCATATAT", 1.02),
    ("GGAAAAAGTG", 0.991),
    ("CCTTCTTTTT", 1.06),
    ("TTGGAGGAAT", 1.02),
    ("CCCTGTGAGC", 1.08),
    ("CTTATATTTT", 0.997),
    ("ATTTTTCAGC", 1),
    ("AAGCATTGTT", 0.999),
    ("GCGCTGTCCG", 0.996),
    ("AGGCCGGTGC", 1.04),
    ("TTAGTAAGGC", 1.22),
]
